target: human MMP-9 (gelatinase B) (Homo sapiens); construct: endogenous in cells; host or cells: HT1080 human fibrosarcoma cells (ATCC CCL-121), PMA-stimulated; enzyme purified from the culture supernatant; test: Inhibition activity against human MMP-9 (gelatinase B), fluorescent peptide substrate; assay type: biochemical; conditions: compounds of the formula (I); 1st measurement; read-out: MMP-9 inhibition activities IC50, 1st
pIC50: −log10 of the molar value.
parameter.measured: pIC50

>>> print(df.to_string())
                                        smi  result_number
0  COc1ccc(NC(=C[N+](=O)[O-])NNc2ccc(C(F)(F)F)cn2)cc1           4.82
1         CNC(=C[N+](=O)[O-])NNc1ccc(OC)cc1           4.36
2     NNC(=C[N+](=O)[O-])NS(=O)(=O)c1ccccc1           4.42
3  CNC(=C[N+](=O)[O-])NNc1cc(C(F)(F)F)cc(OCc2ccccc2Cl)n1           5.05
4   NNC(=C[N+](=O)[O-])NCc1cccc(C(F)(F)F)c1           4.38

---

biological target: human MMP-9 (gelatinase B) (Homo sapiens, UniProt P14780); construct: endogenous in cells; host or cells: HT1080 human fibrosarcoma cells (ATCC CCL-121), PMA-stimulated; enzyme purified from the culture supernatant; assay: Inhibition activity against human MMP-9 (gelatinase B), fluorescent peptide substrate; type: biochemical; conditions: compounds of the formula (I); average of 1st and 2nd (or single measurement); read-out: MMP-9 inhibition activities IC50, Average
Sequence (P14780 107-707 limits assumed): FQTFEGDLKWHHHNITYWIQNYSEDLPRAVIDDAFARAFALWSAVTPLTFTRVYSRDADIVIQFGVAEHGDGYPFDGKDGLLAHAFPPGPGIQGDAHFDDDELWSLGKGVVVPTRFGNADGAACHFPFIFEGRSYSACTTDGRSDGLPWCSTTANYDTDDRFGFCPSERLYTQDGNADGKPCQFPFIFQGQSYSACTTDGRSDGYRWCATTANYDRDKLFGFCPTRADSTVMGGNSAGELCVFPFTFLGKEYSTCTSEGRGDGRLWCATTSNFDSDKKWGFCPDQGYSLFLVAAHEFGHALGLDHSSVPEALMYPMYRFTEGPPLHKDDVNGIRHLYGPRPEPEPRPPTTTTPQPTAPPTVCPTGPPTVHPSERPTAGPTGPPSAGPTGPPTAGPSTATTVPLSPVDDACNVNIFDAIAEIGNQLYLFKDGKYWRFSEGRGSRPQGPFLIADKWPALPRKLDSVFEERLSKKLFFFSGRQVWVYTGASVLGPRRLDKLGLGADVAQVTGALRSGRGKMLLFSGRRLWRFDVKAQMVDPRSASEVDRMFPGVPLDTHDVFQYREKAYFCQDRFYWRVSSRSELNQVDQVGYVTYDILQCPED
pIC50: −log10 of the molar value.
parameter.measured: pIC50

In [3]: df
Out[3]:
                                        smi  parameter_measured  result_number
0        CCCOc1ccc(NC(=C[N+](=O)[O-])NN)cc1               pIC50           4.40
1              NNC(=C[N+](=O)[O-])Nc1cccnc1               pIC50           4.61
2  CNC(=C[N+](=O)[O-])NNc1cc(C(F)(F)F)cc(OCCOC(C)(C)C)n1               pIC50           4.98
3   CNC(=C[N+](=O)[O-])NN=Cc1ccc(C(=O)O)cc1               pIC50           4.67
4  O=[N+]([O-])C=C(NNc1cc(C(F)(F)F)cc(Cl)n1)NS(=O)(=O)c1ccc(-c2ccccc2)cc1               pIC50           5.20
5  CNC(=C[N+](=O)[O-])NN=Cc1ccc(C(F)(F)F)cc1               pIC50           5.11
6             CNC(=C[N+](=O)[O-])NNc1ccccn1               pIC50           4.75
7  CNC(=C[N+](=O)[O-])NNc1cc(C(F)(F)F)cc(OCCSc2ccccc2)n1               pIC50           4.94
8         NNC(=C[N+](=O)[O-])NC1Cc2ccccc2C1               pIC50           4.46
